- EXPERIMENTAL TARGET: T1, TNFR1 (Homo sapiens, UniProt P19438)
- T1 chain: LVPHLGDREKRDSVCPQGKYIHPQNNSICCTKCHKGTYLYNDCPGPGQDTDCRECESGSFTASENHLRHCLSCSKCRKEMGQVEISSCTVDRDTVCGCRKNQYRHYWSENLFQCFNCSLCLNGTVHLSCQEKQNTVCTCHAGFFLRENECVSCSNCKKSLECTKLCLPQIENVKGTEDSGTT
- METHOD NOTES: ELISA
Bridges are numbered along the chain shown (N, C = ends). Where no end group is shown, it is not given here.
RESULT TYPE: pKd
On this scale, pKd is minus log10 of a concentration expressed in M (mol/L).

- BINDER: "CTISRIAVSYQTKVNRLSC (disulfide 1-19) [L16R (α_CC8 L16R cyclic peptide)]"
  RESULT TYPE: "pKd"
  MEASURED RESULT: 6.75

Next item in the queue.
Give its pKd value. Item: YCWSQYLCY (disulfide 2-8 (inferred)) [WP9QY]
5.94
